# Test system: MDA-MB-231
# EXPERIMENTAL DETAILS: MTT cancer cell proliferation assay, MDA-MB-231
# Format: cell-based, human
# RUN CONDITIONS: Homo sapiens, MDA-MB-231, Table 2a; A-ring modified analogues; read-out: IC50 (μM) MDA-MB-231
# Protocol: In Vitro Determination of Effects of Synthesized Diterpenoids on Cancer Cell Proliferation. […] Absorbance of all wells was determined by measuring OD at 550 nm after a 10 min incubation on a 96-well GlowMaxate absorbance reader (Promega, Madison, Wis.). […]
OBSERVATION TYPE: IC50 (µM)

Examples with their reported IC50 follow.
Sure, the documented IC50 for C=C1C(=O)[C@@]23[C@@H]4OC(C)(C)OC25OC[C@]2(C=CC(=O)C(C)(C)[C@H]2[C@@H]5O)[C@@H]3CC[C@@H]14 is 4.39

Looking up C=C1C(=O)[C@@]23[C@@H]4OC(C)(C)OC25OC[C@]2(C(=O)C=CC(C)(C)[C@H]2[C@@H]5O)[C@@H]3CC[C@@H]14 , I found its IC50 recorded as 5.6

[A] C=C1C(=O)[C@@]23[C@@H]4OC(C)(C)OC25OC[C@]2(C(=O)C(C=O)=CC(C)(C)[C@H]2[C@@H]5O)[C@@H]3CC[C@@H]14
[B] C=C1C(=O)[C@]23[C@H](O)[C@H]1CC[C@H]2[C@@]12CO[C@]3(O)[C@@H](O)[C@@H]1C(C)(C)C=CC2=O
[C] C=C1C(=O)[C@]23[C@H](O)[C@H]1CC[C@H]2[C@]12C=C[C@H](O)C(C)(C)[C@H]1[C@H](O)[C@@]3(O)OC2
rank_up(items): orders items by reported IC50 in ascending numerical order. When ranking, write the labels in the order the request describes.
B, A, C
(B: 3.56 µM, A: 6.09 µM, C: 26.1 µM)

====

# Test system: MCF-7
# EXPERIMENTAL DETAILS: MTT cancer cell proliferation assay, MCF-7
# Format: cell-based, human
# RUN CONDITIONS: Homo sapiens, MCF7, Table 1b; triazole substituted analogues; mean of three experiments; read-out: IC50 (μM) MCF-7
# Description: In Vitro Determination of Effects of Synthesized Diterpenoids on Cancer Cell Proliferation. […] Absorbance of all wells was determined by measuring OD at 550 nm after a 10 min incubation on a 96-well GlowMaxate absorbance reader (Promega, Madison, Wis.). […]
OBSERVATION TYPE: IC50 (µM)

So for C=C1C(=O)[C@]23[C@H](O)[C@H]1CC[C@H]2[C@@]12COC3(O)[C@@H](O)[C@@H]1C(C)(C)C[C@H](n1cc(-c3ccc(C(C)(C)C)cc3)nn1)[C@H]2O , the logged IC50 turned out to be 1.9

IC50 for C=C1C(=O)[C@@]23[C@@H]4OC(C)(C)OC25OC[C@]2([C@H](O)[C@@H](n6cc(-c7ccc(C(C)(C)C)cc7)nn6)CC(C)(C)[C@H]2[C@@H]5O)[C@@H]3CC[C@@H]14 is 2

In plain terms, C=C1C(=O)[C@]23[C@H](O)[C@H]1CC[C@H]2[C@@]12COC3(O)[C@@H](O)[C@@H]1C(C)(C)C=C[C@@H]2n1cc(-c2ccccc2)nn1 has a documented IC50 of 2.1

[1] C=C1C(=O)[C@]23[C@H](O)[C@H]1CC[C@H]2[C@]12C=C[C@@H](n4cc(-c5ccccc5)nn4)C(C)(C)[C@H]1[C@H](O)C3(O)OC2
[2] C=C1C(=O)[C@@]23[C@@H]4OC(C)(C)OC25OC[C@]2([C@@H](n6cc(-c7ccccc7)nn6)C=CC(C)(C)[C@H]2[C@@H]5O)[C@@H]3CC[C@@H]14
[3] C=C1C(=O)[C@]23[C@H](O)[C@H]1CC[C@H]2[C@@]12COC3(O)[C@@H](O)[C@@H]1C(C)(C)CC[C@@H]2O
// ascending sort on recorded IC50 Would you mind listing the labels in the order asked for?
2, 1, 3
(2: 0.38 µM, 1: 2.3 µM, 3: 6.6 µM)
